Documented TM across a set of molecules
# measurement.protocol: Thermal stability assessment by nanoDSC
# Assay type: physicochemical
# condition.set: 1 mg/mL in PBS, scan 25-100° C. at 1° C./min, major transition
Quick note: give the figure in °C, leave out the unit.

molecule	TM, °C
SEQ ID NO: 16: optimized CTGF-binding hNGAL lipocalin mutein (protein, lipocalin mutein) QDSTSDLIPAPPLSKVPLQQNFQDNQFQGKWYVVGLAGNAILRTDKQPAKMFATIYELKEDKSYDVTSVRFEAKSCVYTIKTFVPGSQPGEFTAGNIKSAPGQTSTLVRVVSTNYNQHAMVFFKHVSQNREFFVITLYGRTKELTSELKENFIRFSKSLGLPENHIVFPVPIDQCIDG	73
SEQ ID NO: 3: parent CTGF-binding hNGAL lipocalin mutein (protein, lipocalin mutein) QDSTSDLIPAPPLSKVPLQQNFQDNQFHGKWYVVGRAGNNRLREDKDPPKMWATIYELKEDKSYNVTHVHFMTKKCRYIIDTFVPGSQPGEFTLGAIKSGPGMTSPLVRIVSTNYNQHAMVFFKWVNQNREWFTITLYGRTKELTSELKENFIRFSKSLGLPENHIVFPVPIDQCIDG	58
SEQ ID NO: 28: optimized CTGF-binding hNGAL lipocalin mutein (protein, lipocalin mutein) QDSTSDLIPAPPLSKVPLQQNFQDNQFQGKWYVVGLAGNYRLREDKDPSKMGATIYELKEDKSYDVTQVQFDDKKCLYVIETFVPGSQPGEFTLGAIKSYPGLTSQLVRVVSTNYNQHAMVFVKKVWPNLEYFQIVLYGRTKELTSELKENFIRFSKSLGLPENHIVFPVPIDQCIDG	65
SEQ ID NO: 21: optimized CTGF-binding hNGAL lipocalin mutein (protein, lipocalin mutein) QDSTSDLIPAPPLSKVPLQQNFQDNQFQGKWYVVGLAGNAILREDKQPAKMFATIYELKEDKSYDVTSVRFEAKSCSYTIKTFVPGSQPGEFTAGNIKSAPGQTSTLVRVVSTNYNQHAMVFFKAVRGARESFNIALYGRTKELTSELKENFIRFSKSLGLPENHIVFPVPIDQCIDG	65
SEQ ID NO: 23: optimized CTGF-binding hNGAL lipocalin mutein (protein, lipocalin mutein) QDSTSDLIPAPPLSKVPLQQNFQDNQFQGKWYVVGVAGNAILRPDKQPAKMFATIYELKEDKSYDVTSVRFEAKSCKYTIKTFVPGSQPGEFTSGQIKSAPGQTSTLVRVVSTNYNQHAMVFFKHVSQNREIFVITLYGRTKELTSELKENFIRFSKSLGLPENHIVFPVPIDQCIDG	71
SEQ ID NO: 10: optimized CTGF-binding hNGAL lipocalin mutein (protein, lipocalin mutein) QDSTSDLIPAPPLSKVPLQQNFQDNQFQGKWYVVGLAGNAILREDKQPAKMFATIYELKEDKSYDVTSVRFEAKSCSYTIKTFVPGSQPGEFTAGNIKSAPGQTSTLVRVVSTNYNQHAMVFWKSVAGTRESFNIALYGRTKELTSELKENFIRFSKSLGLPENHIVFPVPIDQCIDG	66

# input molecule: SEQ ID NO: 26: optimized CTGF-binding hNGAL lipocalin mutein (protein, lipocalin mutein) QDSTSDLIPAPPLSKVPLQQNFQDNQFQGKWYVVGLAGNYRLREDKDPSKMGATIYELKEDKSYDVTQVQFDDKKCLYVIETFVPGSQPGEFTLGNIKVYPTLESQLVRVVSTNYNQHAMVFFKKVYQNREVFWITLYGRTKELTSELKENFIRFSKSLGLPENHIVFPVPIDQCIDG ; wanted: its TM
71

Queued: SEQ ID NO: 36: optimized CTGF-binding hNGAL lipocalin mutein (protein, lipocalin mutein) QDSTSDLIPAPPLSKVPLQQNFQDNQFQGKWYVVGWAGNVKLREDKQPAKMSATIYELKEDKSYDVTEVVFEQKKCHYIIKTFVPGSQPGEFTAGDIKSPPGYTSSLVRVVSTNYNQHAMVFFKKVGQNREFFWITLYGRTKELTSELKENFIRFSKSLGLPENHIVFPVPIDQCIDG
73

Queued: SEQ ID NO: 22: optimized CTGF-binding hNGAL lipocalin mutein (protein, lipocalin mutein) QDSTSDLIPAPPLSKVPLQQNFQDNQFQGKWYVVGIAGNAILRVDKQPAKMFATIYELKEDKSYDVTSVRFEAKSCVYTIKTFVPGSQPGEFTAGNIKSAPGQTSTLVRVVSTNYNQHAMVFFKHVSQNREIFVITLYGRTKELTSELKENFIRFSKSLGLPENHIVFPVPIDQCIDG
73
